target: CypA^V6TV29L (UniProt P62937 1-165, V6T | V29L); assay: NMR titration
Sequence (P62937 whole entry V6T/V29L): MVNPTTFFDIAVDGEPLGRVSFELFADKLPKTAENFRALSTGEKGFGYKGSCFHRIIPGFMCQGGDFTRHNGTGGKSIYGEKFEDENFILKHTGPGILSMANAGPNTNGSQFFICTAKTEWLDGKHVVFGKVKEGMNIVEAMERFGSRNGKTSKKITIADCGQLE
RESULT_TYPE: Kd (µM)

BINDER | VAL
GSFGPDLRAGD [FGP peptide] | 37
